- Tested on: MDA-MB-453
- assay_protocol: normalised response (% of control), CellTiter-Glo; higher = more viable cells (100 = DMSO, 0 = benzethonium chloride kill control)
- measurement_conditions: incubation time: 72 h

molecule | system_under_test | normalised response / %
CC[C@H](Nc1ncnc2[nH]cnc12)c1nc2cccc(F)c2c(=O)n1-c1ccccc1 [GS-1101] (10000 nM) | MDA-MB-453 | 61.8
CC1=C(/C=C/C(C)=C/C=C/C(C)=C/C(=O)O)C(C)(C)CCC1 [Tretinoin] (10000 nM) | MDA-MB-453 | 56.4
COc1cc2c(Oc3ccc4[nH]c(C)cc4c3F)ncnc2cc1OCCCN1CCCC1 [Cediranib] (1000 nM) | MDA-MB-453 | 103
CC(=O)Nc1cccc(-n2c(=O)n(C3CC3)c(=O)c3c(Nc4ccc(I)cc4F)n(C)c(=O)c(C)c32)c1 [Trametinib] (250 nM) | MDA-MB-453 | 98
Cc1cnc(NC(=O)Nc2cc(Br)c(C)cc2OC[C@@H]2CNCCO2)cn1 [Rabusertib] (1000 nM) | MDA-MB-453 | 77.2
COc1cc2nccc(Oc3ccc(NC(=O)Nc4cc(C)on4)c(Cl)c3)c2cc1OC [Tivozanib] (10000 nM) | MDA-MB-453 | 64.3
O=C(/C=C/c1cccnc1)NCCCCC1CCN(C(=O)c2ccccc2)CC1 [Daporinad] (1000 nM) | MDA-MB-453 | 14.8
O=C(O)C(=O)O.[NH-][C@@H]1CCCC[C@H]1[NH-].[Pt+2] [Oxaliplatin] (10000 nM) | MDA-MB-453 | 89.5
Cc1ccc(-c2cc(C(F)(F)F)nn2-c2ccc(S(N)(=O)=O)cc2)cc1 [Celecoxib] (10000 nM) | MDA-MB-453 | 94.7
CCN(CC)CCCC(C)Nc1c2ccc(Cl)cc2nc2ccc(OC)cc12 (centres undefined) [Mepacrine] (50000 nM) | MDA-MB-453 | 98.8
Nc1ncn([C@H]2C[C@H](O)[C@@H](CO)O2)c(=O)n1 [Decitabine] (10000 nM) | MDA-MB-453 | 97.7
Nc1nc(F)nc2c1ncn2[C@@H]1O[C@H](CO)[C@@H](O)[C@@H]1O [Fludarabine] (10000 nM) | MDA-MB-453 | 112
O=C(Cc1ccc(-c2ccc(OCCN3CCOCC3)cc2)cn1)NCc1ccccc1 [KX2-391] (10000 nM) | MDA-MB-453 | 61.2
CCCS(=O)(=O)Nc1ccc(F)c(C(=O)c2c[nH]c3ncc(-c4ccc(Cl)cc4)cc23)c1F [Vemurafenib] (10000 nM) | MDA-MB-453 | 89.3

---

# normalised viability per entry
- Test system: BT-474
- assay_protocol: normalised viability (% of control), CellTiter-Blue; higher = more viable cells (about 100 = DMSO control)
- measurement_conditions: 1000 nM; incubation time: 72 h

compound | system_under_test | normalised viability
O=C(/C=C/c1cccnc1)NCCCCC1CCN(C(=O)c2ccccc2)CC1 | BT-474 | 58.2%
CC[C@@H]1C(=O)N(C)c2cnc(Nc3ccc(C(=O)NC4CCN(C)CC4)cc3OC)nc2N1C1CCCC1 | BT-474 | 100%
C=CC(=O)Nc1cc2c(Nc3ccc(F)c(Cl)c3)ncnc2cc1OCCCN1CCOCC1 | BT-474 | 34.4%
COc1cc2nccc(Oc3ccc(NC(=O)Nc4cc(C)on4)c(Cl)c3)c2cc1OC | BT-474 | 96.4%
Nc1nc(F)nc2c1ncn2[C@@H]1O[C@H](CO)[C@@H](O)[C@@H]1O | BT-474 | 97.4%
CCc1cncnc1N1CCN(Cc2nc3ccc(C(F)(F)F)cc3[nH]2)CC1 | BT-474 | 118%
NCCCNCCSP(=O)(O)O | BT-474 | 94.5%
O=C(O)C(=O)O.[NH-][C@@H]1CCCC[C@H]1[NH-].[Pt+2] | BT-474 | 118%
COc1cc([C@@H]2c3cc4c(cc3[C@@H](O[C@@H]3O[C@@H]5CO[C@@H](c6cccs6)O[C@H]5[C@H](O)[C@H]3O)[C@H]3COC(=O)[C@H]23)OCO4)cc(OC)c1O [Teniposide] | BT-474 | 113%
Nc1ccccc1NC(=O)c1ccc(CNC(=O)OCc2cccnc2)cc1 | BT-474 | 97%
